- assayProtocol: Volume of distribution at steady state in CD-1 mouse at 1 mg/kg, iv administered as single dose measured up to 24 hrs by LC-MS/MS analysis
- Type: ADME, organism-based
- reportedConditions: in vivo, read-out: Vdss
quantityName: Vd

compoundString	quantityName	result
O=C(C1CCN(c2cc(N3CCOCC3)ncn2)CC1)N1CCC(Oc2ccc(F)cc2)CC1	Vd	1.7 L/kg

Please find the next molecule below.
Form: molecule = O=C(C1CCN(c2cc(N3CCOCC3)ncn2)CC1)N1CCC(Cc2ccc(F)cc2)CC1 ; Vd = 1.3 L/kg

====

- assayProtocol: Kinetic aqueous solubility of the compound in phosphate buffer saline at pH 7.4 after 1 hr by CLND method
- Type: physicochemical
- reportedConditions: phosphate buffered saline, read-out: Kinetic_solubility
# log10(solubility kinetic at 1 h) annotations
Each number you see is log10 of solubility kinetic at 1 h, and the unit inside the log is µM.

As a guide, the following entries are already answered.
compoundString	log10(solubility kinetic at 1 h)
O=C(C1CCN(c2cc(N3CCOCC3)ncn2)CC1)N1CCC(Cc2ccc(F)cc2)CC1	2.20
CC1CCN(C(=O)C2CCN(c3nnc(-n4cccc4)s3)CC2)CC1	2.52
COc1ncnc(Cn2cc(C(=O)NCCF)c3ncccc32)c1C	1.41
O=C(C1CCN(c2cc(N3CCCCC3)ncn2)CC1)N1CCC(Cc2ccccc2)CC1	1.45

# log10(solubility kinetic at 1 h) (compound: O=C(C1CCN(c2cc(N3CCOCC3)ncn2)CC1)N1CCC(Cc2ccccc2)CC1 ) is 2.45
